Could you please report measured pIC50 for the items listed next?
tested on: WT-BaF3 cells; test: Cell antiproliferative activity assay (CCK-8), WT-BaF3 (broad-spectrum cytotoxicity); type: cell-based; conditions: 72 h; WT-BaF3 cells (IL-3 supplemented), CCK-8, 3 days incubation
pIC50: −log10 of the molar value.

Completed entries (count: 2):
Cc1ccnc(C)c1-c1cc(C(F)(F)F)c2nc(Nc3cn(CCO)nc3C)ncc2c1 [I-77] = 5.60 to 6.30
Cc1nn(CCO)cc1Nc1ncc2cc(-c3c(C)n[nH]c3C)cc(C(C)C)c2n1 [I-189] = 5.60 to 6.30

Quick request: pIC50 for each listed item, please.
1. Cc1nn(CCO)cc1Nc1ncc2cc(-c3c(C)ncnc3C)cc(C(F)(F)F)c2n1 [I-150]
2. Cc1ccnc(C)c1-c1cc(C(C)C)c2nc(Nc3cn(CCO)nc3C)ncc2c1 [I-47]
3. Cc1nccnc1-c1cc(C)c2nc(Nc3ccc(P(C)(C)=O)cc3)ncc2c1 [II-68]
4. Cc1nn(C2COC2)cc1Nc1ncc2cc(-c3nccnc3C)cc(C(C)C)c2n1 [III-104]
5. Cc1ccncc1-c1cc(C(C)C)c2nc(Nc3cn(CCO)nc3C)ncc2c1 [I-32]
6. Cc1cc(P(C)(C)=O)ncc1Nc1ncc2cc(-c3nccnc3C)cc(C(C)C)c2n1 [II-4]
7. Cc1ccnnc1-c1cc(C(C)C)c2nc(Nc3cn(C)nc3C)ncc2c1 [III-90]
8. Cc1c[nH]c(=O)cc1-c1cc(C2CC2)c2nc(Nc3cnn(C4COC4)c3C)ncc2c1 [III-83]

[A]
1. < 5.60
2. 5.60 to 6.30
3. < 5.60
4. < 5.60
5. 5.60 to 6.30
6. < 5.60
7. 6.30 to 7.00
8. < 5.60

Cited source for all entries: patent EP4803513A1
